- System: Mycobacterium tuberculosis
- test description: Antimycobacterial activity against multidrug-resistant Mycobacterium tuberculosis clinical isolate HD1 assessed as inhibition of bacterial growth incubated for 7 days by microplate alamar blue assay
- Assay type: functional
- settings: Clinical isolate HD1, 168 h, time 7 day

[
  {
    "mol smiles": "CCOC(=O)NC(=O)c1ccsc1NC(=O)c1nc2ccccc2s1",
    "target of assay": "Mycobacterium tuberculosis",
    "MIC (µM)": 4.15
  },
  {
    "mol smiles": "NNC(=O)c1ccncc1",
    "target of assay": "Mycobacterium tuberculosis",
    "MIC (µM)": 18.2
  },
  {
    "mol smiles": "CO[C@H]1/C=C/O[C@@]2(C)Oc3c(C)c(O)c4c(O)c(c(/C=N/N5CCN(C)CC5)c(O)c4c3C2=O)NC(=O)/C(C)=C\\C=C\\[C@H](C)[C@H](O)[C@@H](C)[C@@H](O)[C@@H](C)[C@H](OC(C)=O)[C@@H]1C",
    "target of assay": "Mycobacterium tuberculosis",
    "MIC (µM)": 1.9
  },
  {
    "mol smiles": "O=C(NC(=O)c1ccsc1NC(=O)c1nc2ccccc2s1)OCC1CCC1",
    "target of assay": "Mycobacterium tuberculosis",
    "MIC (µM)": 1.88
  },
  {
    "mol smiles": "O=C(NC(=O)c1ccsc1NC(=O)c1nc2ccccc2s1)OCC1CC1",
    "target of assay": "Mycobacterium tuberculosis",
    "MIC (µM)": 1.94
  },
  {
    "mol smiles": "COc1nc2ccc(Br)cc2cc1[C@@H](c1ccccc1)[C@@](O)(CCN(C)C)c1cccc2ccccc12",
    "target of assay": "Mycobacterium tuberculosis",
    "MIC (µM)": 0.07
  }
]
